molecular target: TGFβ1 (transforming growth factor β1) (UniProt P01137 279-390); assay: BioVeris ECL competition assay with a labeled competitor; negative control
Sequence (P01137 279-390 limits assumed): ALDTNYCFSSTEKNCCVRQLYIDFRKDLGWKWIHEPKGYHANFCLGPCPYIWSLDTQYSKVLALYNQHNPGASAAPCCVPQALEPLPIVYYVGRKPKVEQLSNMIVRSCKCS
pIC50: −log10 of the molar value.
propertyMeasured: pIC50

binder: FGFps2-Q-BBIt-FGF-5 (BBIt-A13I-L29P-F50T-V52A with the FGF-5 binding peptide FGFps2 TWIDSTP) (designed binder, also called BBIt-FGFps2-Q-A13I-L29P-F50T-V52A) DPDDESSKPCCDQCICTKSNPPQCRCSDMRPNSCHSACKSCACTWIDSTPCTCADITDFCYEPCKPSE
propertyMeasured: pIC50
val: < 3.60
